Values were extracted from paper PMC10504324.

We begin with a simple list: items and their reported Kd.
Tested target: T1, ANK domain of Notch1 intracellular domain (N1ICD-ANK) (UniProt P46531 1927-2122)
T1 construct: Notch1, ankyrin repeat (ANK) domain of the intracellular domain; the numbers fit human NOTCH1 (2555 aa); also called ANK repeat
T1 sequence (P46531 1927-2122): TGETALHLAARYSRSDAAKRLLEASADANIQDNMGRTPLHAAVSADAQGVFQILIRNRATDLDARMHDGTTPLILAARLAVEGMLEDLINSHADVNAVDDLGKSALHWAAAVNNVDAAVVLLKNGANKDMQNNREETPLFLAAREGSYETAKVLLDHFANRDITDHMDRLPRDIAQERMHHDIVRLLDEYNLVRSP
Assay info: SPR; BIAcore T200 (GE Healthcare); dissociation constant calculated with BIA-evaluation software; which partner was immobilised is not stated
Experimental conditions: both partners purified
Bridge positions count the residues as written; N and C are the ends. Square brackets hold non-standard residues; d marks the D form. Ends that are not written are not given here. S5 = C=CCCC[C@](C)(N)C(=O)O
Result type: Kd

1. YAKRIFYQLASKQL (N1DARP residues 20-33 with E32Q and position 10 of the peptide (L29) to Ala; source: synthetic peptide (Chinese Peptide, Inc., Hangzhou; > 98% purity)) [mAH2-10, alanine mutant of mAH2] ... 55.5 nM
2. YAKRIAYQLLSKQL (N1DARP residues 20-33 with E32Q and position 6 of the peptide (F25) to Ala; source: synthetic peptide (Chinese Peptide, Inc., Hangzhou; > 98% purity)) [mAH2-6, alanine mutant of mAH2] ... 63.6 nM
3. YAKAIFYQLLSKQL (N1DARP residues 20-33 with E32Q and position 4 of the peptide (R23) to Ala; source: synthetic peptide (Chinese Peptide, Inc., Hangzhou; > 98% purity)) [mAH2-4, alanine mutant of mAH2] ... 74.5 nM
4. AAKRIFYQLLSKQL (N1DARP residues 20-33 with E32Q and position 1 of the peptide (Y20) to Ala; source: synthetic peptide (Chinese Peptide, Inc., Hangzhou; > 98% purity)) [mAH2-1, alanine mutant of mAH2] ... 96.1 nM
5. Y[S5]KRI[S5]YQLLSKQL (staple 2-6) [SAH-mAH2-2, stapled alpha-helix of mAH2] ... 97.7 nM
6. YAKRIFYQALSKQL (N1DARP residues 20-33 with E32Q and position 9 of the peptide (Leu28) to Ala; source: synthetic peptide (Chinese Peptide, Inc., Hangzhou; > 98% purity)) [mAH2-9, alanine mutant of mAH2 (Leu28 to Ala)] ... 288 nM
7. [S5]AKR[S5]FYQLLSKQL (staple 1-5) [SAH-mAH2-1, stapled alpha-helix of mAH2] ... 134 nM
